Molecular target: P2X purinoceptor 2 (Homo sapiens) (UniProt Q9UBL9)
Sequence (whole entry): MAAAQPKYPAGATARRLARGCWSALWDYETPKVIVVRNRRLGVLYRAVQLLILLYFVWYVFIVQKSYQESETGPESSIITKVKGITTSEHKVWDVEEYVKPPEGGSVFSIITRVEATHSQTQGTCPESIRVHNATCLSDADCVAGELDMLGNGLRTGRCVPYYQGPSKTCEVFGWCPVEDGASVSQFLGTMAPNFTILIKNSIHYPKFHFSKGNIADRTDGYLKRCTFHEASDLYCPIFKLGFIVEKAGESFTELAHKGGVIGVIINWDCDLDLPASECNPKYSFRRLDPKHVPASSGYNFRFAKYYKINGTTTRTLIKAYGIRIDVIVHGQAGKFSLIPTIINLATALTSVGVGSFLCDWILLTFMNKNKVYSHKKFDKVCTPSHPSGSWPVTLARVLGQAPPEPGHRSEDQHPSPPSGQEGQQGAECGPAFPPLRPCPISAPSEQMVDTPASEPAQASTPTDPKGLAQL
Experiment: Antagonist activity against human P2X2R stably transfected in human 1321N1 cells at 50 uM incubated for 30 mins by Fura-2 AM staining based calcium influx assay relative to control
Format: cell-based
Set-up: scale not given: the % may be the effect or the level left
Assign Activity to each entry below.
Give bare numbers, in %.

For record `Cc1cc(Br)ccc1NC(=S)NC(=O)c1ccc2c(c1)OCO2` the listed Activity is 18

For record `COc1ccc(NC(=S)NC(=O)c2ccc3c(c2)OCO3)cc1` the listed Activity is 22

For record `CC(C)c1ccc(NC(=S)NC(=O)c2ccc3c(c2)OCO3)c(Br)c1` the listed Activity is 35

For record `O=C(O)c1ccc2c(c1)OCO2` the listed Activity is 21

Kindly review the next molecule as well.
For record `O=C(NC(=S)Nc1c(Br)ccc(C(F)(F)F)c1Br)c1ccc2c(c1)OCO2` the listed Activity is 38

----------
Target: UniProtKB Q99571
Sequence (Q99571 whole entry): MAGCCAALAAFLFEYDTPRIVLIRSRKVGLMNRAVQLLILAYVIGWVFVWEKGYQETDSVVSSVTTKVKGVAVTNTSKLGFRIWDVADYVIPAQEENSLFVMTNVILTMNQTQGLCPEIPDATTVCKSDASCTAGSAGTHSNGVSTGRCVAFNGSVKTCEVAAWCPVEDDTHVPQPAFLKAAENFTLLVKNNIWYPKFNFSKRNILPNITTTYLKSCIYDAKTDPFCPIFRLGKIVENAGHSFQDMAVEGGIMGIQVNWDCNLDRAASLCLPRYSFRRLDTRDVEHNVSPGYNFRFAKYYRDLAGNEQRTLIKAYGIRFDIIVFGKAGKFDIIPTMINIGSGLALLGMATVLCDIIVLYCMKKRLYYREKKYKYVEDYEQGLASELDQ
Assay: Antagonist activity against human P2X4R stably transfected in human 1321N1 cells incubated for 30 mins by Fura-2 AM staining based calcium influx assay
Assay type: cell-based
Assign pIC50 to each entry below.
Give bare numbers, as −log10 of the molar value.

Some entries whose results are on file:
For record `O=C(NC(=S)Nc1cc(Cl)c(O)c(Cl)c1)c1ccc2c(c1)OCO2` the listed pIC50 is 5.12

For record `O=C(NC(=S)Nc1ccccc1O)c1ccc2c(c1)OCO2` the listed pIC50 is 5.66

For record `COc1ccccc1NC(=S)NC(=O)c1ccc2c(c1)OCO2` the listed pIC50 is 5.44

For record `O=C(NC(=S)Nc1cccnc1Cl)c1ccc2c(c1)OCO2` the listed pIC50 is 6.03

For record `NS(=O)(=O)c1ccc(CCNC(=S)NC(=O)c2ccc3c(c2)OCO3)cc1` the listed pIC50 is 5.98

Fill in pIC50 for each of the 4 compounds listed.
1. NS(=O)(=O)c1cccc(NC(=S)NC(=O)c2ccc3c(c2)OCO3)c1
2. O=C(NC(=S)Nc1cccc2cccnc12)c1ccc2c(c1)OCO2
3. Cc1ccc(C(=O)Nc2ccc(S(=O)(=O)O)c3cc(S(=O)(=O)O)cc(S(=O)(=O)O)c23)cc1NC(=O)c1cccc(NC(=O)Nc2cccc(C(=O)Nc3cc(C(=O)Nc4ccc(S(=O)(=O)O)c5cc(S(=O)(=O)O)cc(S(=O)(=O)O)c45)ccc3C)c2)c1
4. O=C(NC(=S)Nc1cc(Br)cc(C(F)(F)F)c1)c1ccc2c(c1)OCO2

Output:
1: 5.66; 2: 6.04; 3: 5.33; 4: 4.74

Fill in pIC50 for each of the 5 compounds listed.
1. Cc1cc(Br)ccc1NC(=S)NC(=O)c1ccc2c(c1)OCO2
2. CC(C)c1ccc(NC(=S)NC(=O)c2ccc3c(c2)OCO3)c(Br)c1
3. O=C(NC(=S)Nc1ccc([N+](=O)[O-])cc1)c1ccc2c(c1)OCO2
4. O=C(NC(=S)Nc1ccc(Br)cc1)c1ccc2c(c1)OCO2
5. O=C(NC(=S)Nc1c(Br)ccc(C(F)(F)F)c1Br)c1ccc2c(c1)OCO2

Output:
[4.85, 7.41, 5.42, 4.85, 7.26]

For record `O=C(NC(=S)Nc1ccc(O)cc1)c1ccc2c(c1)OCO2` the listed pIC50 is 5.84
